Exercise: state measured PBM binding z-score for each of the sequences provided.
tested on: RXRa DBDmut IVT, anti-RXR (DBD mutation: RXRa K156A/R161A, NR concentration 90 nM); test: PBM binding z-score (relative to random genomic background probes); higher = stronger binding; sequences stand for … in GC…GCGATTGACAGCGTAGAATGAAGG
Would you mind answering with just the numeric figure?

Recorded PBM binding z-score (sequence "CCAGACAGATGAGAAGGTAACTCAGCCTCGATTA" ): 0.092

Noted for "CGTCCAAGCTCAAAGGTCAGTGAAGAGATGACGG" : its PBM binding z-score reads 0.306

Per the records, this sequence ( "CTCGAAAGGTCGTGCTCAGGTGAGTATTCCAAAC" ) has PBM binding z-score equal to 2.25

// "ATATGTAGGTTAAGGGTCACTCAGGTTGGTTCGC" : PBM binding z-score value = 1.82

Input "TCTGCTAGGTCAACGAGGGTCAGCTAATCTGCTA" . Output PBM binding z-score: 1.47

Consider "TCGAGTAGCTTACCAATGGGGCATTCAGCTTTCT" . Its measured PBM binding z-score is 0.345

Lab note: "TCATTTAGGTAAATGCTAGGTGAAAGTCCGATCT" gave PBM binding z-score of 1.57

"AGAATGAGGTTATACGTAGATCAGGGGAGAAAGT" yielded PBM binding z-score of 2.05

Reported PBM binding z-score ( "TAGCCTAGGTCATTCAGGGGACAGTATAGAAAGC" ) = 2.35

The sequence "CGTCCAAGGTCGTAGGAGGTCAGTGAAGACAGAT" showed PBM binding z-score equal to 2.43

Input "GGAACGAGGGCAAGTTGATAGCAGAGTTTGATGG" . Output PBM binding z-score: 2.42

Data point: "TCTTGTAGATCAATAGAGCTTAAGAAAGTGCGCT" ; PBM binding z-score = -0.034

Notebook: "ACTAGCAGGCCAAGGCTCACTCAAGATTAGTCCG" , PBM binding z-score read as -0.206

Value of measured PBM binding z-score for the entry "GCTAGTTGGTCAGTAAAAGGTCAGACACCGGTCG" : 0.252

The recorded PBM binding z-score for "CCTCGGGGGACAGAAGGTCAGAGCTGTCCGCTTT" is 0.388

So, "CCTACTGGGCCATCAGATCATTGATATCAACGTT" ? Its PBM binding z-score was 0.0432

Just so you know, measured PBM binding z-score for "ATATGTAGGTTAATGGTCATTCAGGTTGGTTCGC" came out at 0.788

Per the record, "TAGCCTAGGTCAGATGGGGCCAGTATACGCTATA" has PBM binding z-score of -0.279

For record "ATTGAAAGGTCGACGAGGTGAGTATACACCGTTT" the listed PBM binding z-score is 1.2

Value of measured PBM binding z-score for the entry "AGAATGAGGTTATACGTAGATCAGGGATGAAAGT" : 1.92

Lab note: measured PBM binding z-score of "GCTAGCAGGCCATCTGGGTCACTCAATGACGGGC" was -0.462

PBM binding z-score measured on "TCGAGTAGGTTAGGGGCTTTCAGAATGGCGTCGA" = 0.128

Lookup result for "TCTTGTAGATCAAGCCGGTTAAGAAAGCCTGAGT" ; measured PBM binding z-score: 0.918

The recorded PBM binding z-score for entry "TCATATAGGTAAATGCTAGGTAAAAGTCCGATCT" equals 1.76

Lab book: PBM binding z-score of "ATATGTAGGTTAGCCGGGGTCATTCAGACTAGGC" noted as 2.39

Kindly note the recorded PBM binding z-score for "CCTCGGAGGACAGTAGGTCAGAGCTGTCCGCTTT" , which is 0.0907

* * *

tested on: RARb homodimer (NR concentration 270 nM); test: PBM binding z-score (relative to random genomic background probes); higher = stronger binding; sequences stand for … in GC…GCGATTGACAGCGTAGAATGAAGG
Reported property: PBM binding z-score
Respond numerically, and do not add a unit to the figure.

So for "CCGACTGGGACATAAGGTTACCATAAGCCAGCCC" , the logged PBM binding z-score turned out to be 1.42

PBM binding z-score reported for this sequence "CCTCGGAGGACAACAGTAGGTCAGAGCTGCCAGA" : 2.54

Short answer for "TCTCGGTGGACACGAAAGGTCAGAGCTCGACATC" : PBM binding z-score was 4.36

"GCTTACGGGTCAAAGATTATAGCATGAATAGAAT" yielded PBM binding z-score of 2.21

Entry "ATATGTAGGGTATCGGGTCATTCAGTTTGCGCAT" ; PBM binding z-score = 2.99

The recorded PBM binding z-score for entry "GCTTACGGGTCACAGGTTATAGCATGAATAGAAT" equals 2.95

For reference, reported PBM binding z-score for "GCTGCTAGGCCAGGTTGGTCAGCTAACGGGTACG" stands at 6.85e-05

Briefly, PBM binding z-score measured for "ACAGACAGGTTATGAAGGTAACTCAGGCTATCAT" : 0.833

Per the record, "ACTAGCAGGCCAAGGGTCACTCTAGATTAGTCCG" has PBM binding z-score of 3.64

PBM binding z-score measured on "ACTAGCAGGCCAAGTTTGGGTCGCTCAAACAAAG" = 0.422

# PBM binding z-score (sequence: "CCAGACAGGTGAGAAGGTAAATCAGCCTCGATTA" ) is 0.187

Sample "CCTACTGGGCAAAAGGTCATTGATTCCAATGCTC" ; PBM binding z-score observed: 4.53

* * *

tested on: LXRb:RXRa (NR concentration 270 nM, RXRa partner concentration 90 nM); test: PBM binding z-score (relative to random genomic background probes); higher = stronger binding; sequences stand for … in GC…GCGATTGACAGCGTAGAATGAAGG
Would you mind telling me the reported PBM binding z-score of each entry?
Answer with the value's number alone.

Given item "GATACAGGGTCAAAGCCAGAGTACGCGTATTGAT" , the value recorded as its PBM binding z-score is 3.97

// PBM binding z-score lookup, sequence = "AGTACGAGGGCACGCTGAGTTGATAGCAGAGTAG" , result: 0.078

Query "CCTAGCAGGCCAGGGTCACTTAAGCATTTCGCTT" yields PBM binding z-score of 1.91

Per the record, "TCATATAGCTAAACAGGTGAAAGTCCGTAAGTTA" has PBM binding z-score of 0.338

Entry "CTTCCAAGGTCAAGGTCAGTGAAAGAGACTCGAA" — recorded PBM binding z-score = 4.85

Entry under test: "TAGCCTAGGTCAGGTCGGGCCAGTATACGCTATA" . Its PBM binding z-score was 0.724

Sure, the documented PBM binding z-score for "TCGAGTAGGTTTGTCGGGGCATTCAGCCAACATA" is 0.558

sequence "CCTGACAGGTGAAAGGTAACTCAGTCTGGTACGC" , PBM binding z-score observed: 0.923

"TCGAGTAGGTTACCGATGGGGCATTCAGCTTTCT" has a reported PBM binding z-score of 0.678

Field PBM binding z-score (entry "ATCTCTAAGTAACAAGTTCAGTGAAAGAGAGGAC" ) reads 0.595

Documented PBM binding z-score of "TTACCAAGGTGAAGGTCGTTGATCCCTCTGTAGA" : 1.45

PBM binding z-score in this record for "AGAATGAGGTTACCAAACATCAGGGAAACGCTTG" : 1.31

Note to self: PBM binding z-score recorded for "GCGACTGGGGCATCAGCAGGTTACCAAAACTTAA" was 0.621

The reported PBM binding z-score of the sequence "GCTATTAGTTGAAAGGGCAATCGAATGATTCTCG" was 0.633

So for "CGTCCTAGGTCAAAGGTCAGTGAAGAGATGACGG" , the logged PBM binding z-score turned out to be 5.52

// sample "CAAACTAGGCCACCGGAAGGTCAAAGTCCGCATG" , its PBM binding z-score was 3.15

Briefly, PBM binding z-score measured for "CCTACTGGGCCACGAAAAGTCATTGATTCAGTGA" : -0.375

// PBM binding z-score lookup, sequence = "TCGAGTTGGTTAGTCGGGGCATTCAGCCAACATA" , result: 0.513

Form: sequence = "CCGACTGGGTCATAAGGTTACCATAAGCCAGCCC" ; PBM binding z-score = 2.23

Note to self: PBM binding z-score recorded for "AGCATGAGGTTATACGTAGATCAGGGAAGAAAGT" was 1.47

sequence "GCTGCTAGGTCCACTGATGGTCAGCTAAAGCTCG" , PBM binding z-score observed: -0.586

Record summary for "TCTTGTAGATCAAAAGGAGGTTAAGAAAGATCGA" : reported PBM binding z-score = 1.37

Reported PBM binding z-score ( "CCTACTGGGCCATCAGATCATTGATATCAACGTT" ) = -0.263

Entry "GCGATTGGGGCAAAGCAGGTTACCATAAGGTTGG" , PBM binding z-score reported as 0.678

Lab book: PBM binding z-score of "CCTAGCGGGCCAATCTGGGTCACTCAAGGCTTGA" noted as 0.534

Form: sequence = "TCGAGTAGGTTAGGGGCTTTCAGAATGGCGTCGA" ; PBM binding z-score = 0.6

Entry "TCGTGTAGATCAACAGGAGGTTAAGAAAGATCGA" ; PBM binding z-score = 0.789

Per the records, this sequence ( "TCTTGTAGCTCAAAGGTTAAGAAAGCCGAAGCCT" ) has PBM binding z-score equal to 1.32

Entry under test: "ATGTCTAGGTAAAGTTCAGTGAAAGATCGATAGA" . Its PBM binding z-score was 1.15

"CCTTACGGGTCACTCCAGGTTGTAGCATCGGAGT" yielded PBM binding z-score of 3.72

Item: "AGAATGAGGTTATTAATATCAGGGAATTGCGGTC" | PBM binding z-score: 1.3

Query "TCTCCTAGGTCAGTTGGTCAGCTAACGAGCTGCC" yields PBM binding z-score of 1.26

Documented PBM binding z-score of "GCGACTGGGGCAACAGCAGGTTACCATAACTTAA" : 0.734

Entry "ATGTCTAGGTAAAGATAGTTCAGTGAATGCAAAT" ; PBM binding z-score = 0.617

PBM binding z-score reported for this sequence "CGTCCAACGTCAGAGAGGTCAGTGAATGCCGAGT" : 1.75

Entry "TCTAGTTGGTCACGGAGGTCACACCCGACGGGTA" , PBM binding z-score reported as 3.2

Record "CCAGACAGCTGAAAGGTAACTCAGTCTGGTACGC" , field PBM binding z-score: -0.00199

Reported PBM binding z-score ( "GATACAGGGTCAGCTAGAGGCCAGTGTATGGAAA" ) = 2.42

PBM binding z-score reading for "ATCTCTAGGTAAGACTCCGTTCAGTGAAGAACGC" : 0.0873

Entry under test: "ATCGAAAGGTCGAACGTGAGTATACCCACCCGAA" . Its PBM binding z-score was 3.32

Entry "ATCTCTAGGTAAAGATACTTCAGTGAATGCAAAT" ; PBM binding z-score = 0.403

Data point: "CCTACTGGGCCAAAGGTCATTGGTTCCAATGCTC" ; PBM binding z-score = 4.94

Short answer for "CCGTACGGGTCACGAGGTTATAGCACGACGAGCG" : PBM binding z-score was 4.08

Value of measured PBM binding z-score for the entry "ACAAACAGGTGAGTGAAGGTAACTCAGCTGGACG" : -0.542

For reference, reported PBM binding z-score for "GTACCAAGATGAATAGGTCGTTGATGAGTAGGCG" stands at -0.161

PBM binding z-score recorded for this sequence, "CCTTACCGGTCACTGACAGGTTATAGCATTTGGA" , is 1.31

Lab book: PBM binding z-score of "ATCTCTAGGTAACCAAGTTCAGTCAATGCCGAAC" noted as 1.16

Just so you know, measured PBM binding z-score for "TCTTCTAGGTCAGTTGGTCAGCTAACGAGCTGCC" came out at 1.71

Record summary for "AGAATGAGGTTAAGATCCGGGAAACAGAATACAT" : reported PBM binding z-score = 1.58

Sure, the documented PBM binding z-score for "CGAACTAGGACATTGACAGGACAGTGAATAGTAA" is -0.38

Memo: "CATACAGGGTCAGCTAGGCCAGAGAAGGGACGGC" , reported PBM binding z-score: 2.27
